- Tested on: NCI-H322M lung
- method-summary: NCI-60 one-dose screen, 48 h (100 = growth as untreated, 0 = no growth, -100 = all killed)
- run-conditions: 10 µM unless noted
About 83,000 compounds went through this panel and 20% of them were active in at least one assay; those are over-represented in the sample as a whole.
value-type: growth (%)
Number in %, nothing else.

These recorded examples may help you get a feel for the data.
c1ccc(CNc2ncnc3ccc(-c4cnc5[nH]ncc5c4)cc23)cc1 59.3
N=C1CC(=O)NN1C(=O)CSc1nc2sc3c(c2c(=O)n1-c1ccc(Cl)cc1)CCCC3 103
Nc1cc(-c2c[nH]c3ccc(F)cc23)nc2cc(-c3c[nH]c4ccc(F)cc34)nn12 94.1
Cc1cc2nc3c4cc(Cl)ccc4n(CC(=O)NCCN(C)C)c3nc2cc1C 83.7

So, `CCOC(=O)c1c(Nc2ccccc2)nn2c(N)c(C#N)c(-c3ccccc3)nc12` ? Its growth was 94.8

Given item `C/C(=N/NC(N)=S)c1ccc(Nc2nc(SCC(C)C)nc(-c3ccc(F)cc3)c2C#N)cc1` , the value recorded as its growth is 31.4

Entry `Cc1sc2c(c1C)c(=O)nc1c(-c3nc(-c4ccc(F)cc4)no3)n[nH]n12` ; growth = 103

// data source = PubChem BioAssay (NCI)
